- target-of-assay: Neu5Ac(a2-3)Gal(b1-3)GlcNAc(b1-2)Man
- test-description: glycan array binding signal (z-score within array); higher = stronger binding
- measurement-parameters: glycan notation: IUPAC condensed, linker removed
The entries come from a sample that favours the strongest signals as a whole.
reported-property: glycan array binding signal (z-score)
Reply with the value as a number alone.

(Q) Supply reported glycan array binding signal (z-score) belonging to this binder: AAA (Anguilla anguilla), Q7SIC1 (protein) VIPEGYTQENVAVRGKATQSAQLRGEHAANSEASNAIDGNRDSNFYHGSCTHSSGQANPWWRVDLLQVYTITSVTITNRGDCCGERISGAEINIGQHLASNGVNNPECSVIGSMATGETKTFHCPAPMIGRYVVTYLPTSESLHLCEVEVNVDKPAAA
(A) -0.023

(Q) Query glycan array binding signal (z-score) for Mermaid2 (Stilbonema majum) (protein) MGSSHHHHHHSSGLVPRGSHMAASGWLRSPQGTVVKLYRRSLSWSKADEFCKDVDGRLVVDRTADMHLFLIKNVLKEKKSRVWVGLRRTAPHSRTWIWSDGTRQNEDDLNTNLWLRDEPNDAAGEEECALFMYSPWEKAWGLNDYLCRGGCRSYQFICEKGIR
(A) -0.619

(Q) Give glycan array binding signal (z-score) for the following binder: LlpB (Pseudomonas fluorescens) (protein) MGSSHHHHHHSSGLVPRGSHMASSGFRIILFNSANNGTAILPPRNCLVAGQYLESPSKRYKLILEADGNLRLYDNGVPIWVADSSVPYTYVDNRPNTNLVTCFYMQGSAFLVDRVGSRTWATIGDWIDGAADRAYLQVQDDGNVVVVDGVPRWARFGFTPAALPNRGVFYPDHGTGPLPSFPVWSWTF
(A) 2.63
